- SYSTEM UNDER TEST: tooth pellicle (thin film derived from salivary glycoproteins, formed in a human mouth) (human)
- ASSAY NOTES: phage ELISA on pellicle-coated HAP disks, anti-M13-HRP; no-phage control 0.218
Threshold-based label: O.D.450 under 0.6 gives criterion met, O.D.450 not under 0.6 gives criterion not met.

// below: answered binders
                           binder        label_class
0  NPTDHIPANSTNSRVSKGNT [Pell 15]      criterion met
1  NNTSADNPPETDSKHHLSMS [Pell 12]      criterion met
2         DLCSMQMMNTGCHY [Pell 5]  criterion not met

input: Regarding DPNESNYENATTVSQPTRHL [Pell 7] , kindly confirm whether its O.D.450 is beneath 0.6.
output: criterion not met

input: Regarding DECMHGSDVEFCTS [Pell 4] , kindly confirm whether its O.D.450 is beneath 0.6.
output: criterion not met

input: Regarding NPTDSTHMMHARNHE [Pell 16] , kindly confirm whether its O.D.450 is beneath 0.6.
output: criterion met
